Provenance of the data: the supplement of paper PMC10567573

Assay: protein stability index of a GFP-peptide fusion (GPS, HEK-293T) (PSI 1-6); higher = more stable;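 also: 24-mer peptide tiles fused after GFP, lentivirally expressed, FACS-sorted into six equal bins by GFP/DsRed ratio, decoded by Illumina sequencing, PSI is the read-weighted mean bin number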
Conditions: treatment: DMSO; c terminus: a fixed tail appended
For each record, write down the corresponding protein stability index.
One number for each entry.

LPLLSPKFLVGTVGSDPLIKSDEE [KLHL20]: 4.33
GHMLQHHGNSGHPLVLSYIDLSAW [HDAC6]: 2.24
FAWPFYQPVDAIKLNLPDYHKIIK [BRD3]: 2.24
KQKNAYIGTQGPLENTYRDFWLMV [PTPN9]: 2.44
DYSASEYRWHINFTTFFIDCMAAL [SCD]: 2.54

I'm hoping you can list protein stability index for every sequence here, please.
1. YAPPPTPAPATQMPSTPGFVGYNP [SMARCE1]
2. FLFAKLFSHITSARKARKYEIPHF [PHTF1]
3. VGKTRLICARACNATLTQYQLLAT [RHOBTB2]
4. VADGLCCVLTTPCLTQSTAAPAVR [SLA]
5. VVGLHAASKDPREVREARDHKEPK [EHMT1]
6. AEYYRLHLEGYHGTAGDSMSYHSG [TNXB]
7. YKKIYFCHSCQLYLPSTEFSVSST [IQUB]

A.
1: 3.01; 2: 3; 3: 2.28; 4: 2.5; 5: 5.06; 6: 3.09; 7: 2.39

----------
Test: protein stability index of a GFP-peptide fusion (GPS, HEK-293T) (PSI 1-6); higher = more stable
Details: treatment: DMSO; c terminus: a fixed tail appended
Tag: y if measured protein stability index is not below 3, n if it is.

Some solved entries appear below for comparison.
SFMLQDRAKGLLGTTVTFDDLMGI [FEM1C]: n
NNTGKNLELKFVSSLRRQFEFSVD [TENT5D]: n
QQDLERSLQDASRGDPAHAGLAEL [PBXIP1]: y

Q. // inclusive: protein stability index at least 3? input: QRLDYEREIQPTAILSLDQIKAIR [SPRY1]
A. y

Q. Is protein stability index at least 3? Consider DGENVFTGQSKIYSYMSPNKCSGM [KMT5A]
A. y

Q. Kindly determine if protein stability index recorded for MSQTVQRMLVAASWACAFTNALTH [OR3A1] is above or exactly 3.
A. y

Q. Could you please find out whether MIRESETKKGFYSLSVRHRQVKHY [SLA] has protein stability index that meets 3 or exceeds it?
A. n

Q. Could you please find out whether DSSHDSARASEGSDSGSDKSLEGG [SMG5] has protein stability index that meets 3 or exceeds it?
A. y

Q. Has LQALDPQQCVDKESSLGSESEEEE [SLC22A15] a recorded protein stability index greater than or equal to 3?
A. y

Q. Textbook exercise: given the entry KNIFRIRFHDPSPAQSHTLQANDV [NET1] , state whether its protein stability index is greater than or equal to 3.
A. n

Q. Can FISRTSIPNAASEEGDEDDWASNK [WEE1] be said to have protein stability index at or above 3?
A. y

Q. Given the entry KFSPFGQWWASVGMDDFLGVYSMP [TLE6] , answer whether its protein stability index meets or surpasses 3.
A. n

----------
Experiment: protein stability index of a GFP-peptide fusion (GPS, HEK-293T) (PSI 1-6); higher = more stable
Conditions: treatment: DMSO; c terminus: a fixed tail appended
Consider the following sequences; for each one, report its protein stability index.
Numbers only.

AAKQLEYQQLEDDKLSQKSSSSKL [EPB41L3]: 5
ALHSLTQAGDYSMRVDLRAGDEAV [TNXB]: 3.39
SNPLAREIFRRHFRQLCYQETPGP [ZSCAN9]: 2.28
EERAKAKHLARQLEEKDRVLKKQD [CHCHD3]: 5.51
SPDVLQMLKIHRSDPQLIVQLRFC [TRADD]: 2.73

Go through the items and report each one's protein stability index.
1. GKKVAVVLMDTQGAFDSQSTVKDC [ATL3]
2. YYYMGFYIHSCPKMKYKGQYRPSD [ATE1]

A.
1: 3.46; 2: 2.25

Batch request: protein stability index per item, same order as input.
1. SSRFSSSRLLGSASPSSSVRLGSF [PRPH]
2. PPNGPNLPMATVDIKNPEITTNRF [WASL]

A.
1: 2.82; 2: 4.48

----------
Assay: protein stability index of a GFP-peptide fusion (GPS, HEK-293T) (PSI 1-6); higher = more stable
Settings: treatment: DMSO; c terminus: a fixed tail appended
Rule: protein stability index of 3 or more gives t; anything lower gives f.

Recorded results for 5 sequences are shown here.
MLPGVGVFGTSLTARVIIPLLKDE [GFOD1]: f
FLTILPEELQSWVRGHHPKSGEEA [ZNF232]: t
PVCRKTSRYRSLRPNRQLGSMVEI [TRIM39]: f
NVEDASHEEVVEKVKKSGSRVMFL [PDZK1]: t
SGMGGRAPVSRGRDSYGGPPRREP [RBMX]: t

Q. Hello, I need to know if DSQRVASVSLDRCIKIWDVTSQAT [WDR88] has measured protein stability index not below 3. Thanks!
A. t

Q. Does IHPDEDISLEERRAQLPKYQRNLP [ZNF207] have a reported protein stability index of at least 3?
A. t

Q. Kindly determine if protein stability index recorded for RSRDSNSGPEEPLLEEEEKQWGPL [RTN2] is above or exactly 3.
A. t

Q. Decide: protein stability index of KKRFTRRSHLIGHQRTHSEEETYK [ZNF449] >= 3?
A. t

Q. protein stability index >= 3 for THLLMGLASGRIILILEGGYNLTS [HDAC6] ?
A. f

Q. Check the entry SNQIPTEVRSKAEEVVSFVKKNVL [FUNDC2] : does protein stability index equal or exceed 3?
A. t

----------
Assay: protein stability index of a GFP-peptide fusion (GPS, HEK-293T) (PSI 1-6); higher = more stable
Conditions: treatment: MLN4924 1 uM, 8 h; c terminus: a fixed tail appended
For each record, write down the corresponding protein stability index.

Some solved cases for reference:
SARYLEAALRLHRLLRDSEAFCHA [P3H4]: 2.07
LPEQVDIIISEPMGYMLFNERMLE [CARM1]: 2.12
EDLMPLAAAYGHALEQYEGESWRE [P3H4]: 4.86
AWKDDFALNSMLRRRFREKKKAIQ [YJU2B]: 3.37
MEGLAGYVYKAASEGKVLTLAALL [FEM1B]: 2.09
LVHVMERSLSPSLSSVDMRMTSSP [RAD54B]: 2.58
WGEGLHQLREALKILAERVLILET [EMID1]: 2.78
PHQCSECGRAFSRKSLLVVHQRTH [ZNF649]: 5.12

Could you report protein stability index for every entry in the following list?
1. SEDNTSFDRKKKSISLMYGGSKRK [SLA]
2. KKTVHYYAELGQCSVFPATDAPEQ [PLK2]
3. GTAITSQYLAERYKVNTPMLQSFI [SLC35F2]
4. RKVAGMAKPNMIISVNGDVITIKS [FABP4]

A.
[4.91, 3.64, 2.26, 2.43]

For each listed entry, give its protein stability index.
1. CIMDDAINILQNEKSHQVLAQLLD [INTS4]
2. SDSGDGVYAGRPLSVIQMVAFLEQ [FBXO34]
3. STCHAYSNTRDRYGRSWESYSSCG [RBMY1A1]
4. EAFQIVLSHLLGDAGSPYLIGLIS [SPNS1]

A.
2.37
3.02
2.47
2.98

----------
Please go through the items and note down their protein stability index.
Experiment: protein stability index of a GFP-peptide fusion (GPS, HEK-293T) (PSI 1-6); higher = more stable
Conditions: treatment: DMSO; c terminus: a fixed tail appended
One number for each entry.

Look over these answered cases.
IKGLQRKERLKPAHIHLQQLTCFS [KRT34]: 2.3
APSNSTSLNSTFGSTNLTGLFFPP [NFE2L1]: 3.32

Now look at this entry.
Q. Bench note: what protein stability index did LYGLGSGSSYVQNGTGNAYEEEAN [CNOT7] show?
A. 4.74

----------
Please respond with reported protein stability index for every item in the list.
Assay: protein stability index of a GFP-peptide fusion (GPS, HEK-293T) (PSI 1-6); higher = more stable
Conditions: treatment: MLN4924 1 uM, 8 h; c terminus: a fixed tail appended
Answers are plain numbers.

Provide protein stability index for all items below, preserving their order.
1. ATLPGIFMLLLIFFAFLHCWLNAF [SOAT2]
2. YGPRWQEVIPYTPAMQRYVKRLHE [HMOX1]
3. LCREEPVVQGPDGRLELKPLLLRL [FANCE]
4. SYSRGYSYHDGYGEALGRDHSEHL [RBMY1A1]
5. FEEFLVMMVRQMKEDAKGKSEEEL [TNNC2]

A.
2.3
3.4
2.48
3.38
3.28

Value sought for every listed sequence: protein stability index.
1. EDQAEAWGCSCCPPETKHQALSGT [TSPAN10]
2. APLRKLSVDLIKTYKHINEVYYAK [DYRK1B]

A.
1: 4.67; 2: 2.96
